Molecular target: DNA polymerase I, thermostable (Thermus aquaticus)
Sequence (P19821 whole entry): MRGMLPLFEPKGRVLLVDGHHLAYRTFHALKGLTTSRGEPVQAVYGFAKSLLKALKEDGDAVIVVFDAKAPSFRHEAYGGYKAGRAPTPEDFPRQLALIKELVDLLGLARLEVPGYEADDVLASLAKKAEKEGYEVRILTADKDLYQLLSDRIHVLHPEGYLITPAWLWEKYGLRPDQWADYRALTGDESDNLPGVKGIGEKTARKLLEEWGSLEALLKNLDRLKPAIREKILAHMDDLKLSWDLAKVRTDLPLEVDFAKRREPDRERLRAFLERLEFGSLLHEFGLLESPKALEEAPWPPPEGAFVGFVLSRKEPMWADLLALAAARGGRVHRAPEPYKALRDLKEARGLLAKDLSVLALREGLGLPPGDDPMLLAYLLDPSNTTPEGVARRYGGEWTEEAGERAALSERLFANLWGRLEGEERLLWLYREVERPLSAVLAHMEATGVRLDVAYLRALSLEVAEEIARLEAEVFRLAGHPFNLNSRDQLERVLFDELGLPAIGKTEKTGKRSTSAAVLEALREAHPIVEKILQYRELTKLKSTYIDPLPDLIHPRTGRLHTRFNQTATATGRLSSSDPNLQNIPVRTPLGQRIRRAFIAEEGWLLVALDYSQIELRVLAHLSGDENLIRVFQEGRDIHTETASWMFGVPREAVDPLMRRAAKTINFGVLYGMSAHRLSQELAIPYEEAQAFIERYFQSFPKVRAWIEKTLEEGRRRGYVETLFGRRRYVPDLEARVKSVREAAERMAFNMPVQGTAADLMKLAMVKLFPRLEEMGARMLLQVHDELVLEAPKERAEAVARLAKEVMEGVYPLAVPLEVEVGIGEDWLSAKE
observable: IC50 (µM)
Output spec: scalar in µM, unitless text.

Form: Entry = "CC(C)=CC[C@]12C[C@@H]3[C@H](C=C(C)C)[C@](CC=C(C)C)(C1=O)C(=O)[C@](C(=O)c1ccccc1)(C2=O)C3(C)C" | System = DNA polymerase I, thermostable (Thermus aquaticus) | IC50 = ____ 12.5
